Target: ATP-dependent translocase ABCB1 (Homo sapiens)
Sequence (P08183 whole entry): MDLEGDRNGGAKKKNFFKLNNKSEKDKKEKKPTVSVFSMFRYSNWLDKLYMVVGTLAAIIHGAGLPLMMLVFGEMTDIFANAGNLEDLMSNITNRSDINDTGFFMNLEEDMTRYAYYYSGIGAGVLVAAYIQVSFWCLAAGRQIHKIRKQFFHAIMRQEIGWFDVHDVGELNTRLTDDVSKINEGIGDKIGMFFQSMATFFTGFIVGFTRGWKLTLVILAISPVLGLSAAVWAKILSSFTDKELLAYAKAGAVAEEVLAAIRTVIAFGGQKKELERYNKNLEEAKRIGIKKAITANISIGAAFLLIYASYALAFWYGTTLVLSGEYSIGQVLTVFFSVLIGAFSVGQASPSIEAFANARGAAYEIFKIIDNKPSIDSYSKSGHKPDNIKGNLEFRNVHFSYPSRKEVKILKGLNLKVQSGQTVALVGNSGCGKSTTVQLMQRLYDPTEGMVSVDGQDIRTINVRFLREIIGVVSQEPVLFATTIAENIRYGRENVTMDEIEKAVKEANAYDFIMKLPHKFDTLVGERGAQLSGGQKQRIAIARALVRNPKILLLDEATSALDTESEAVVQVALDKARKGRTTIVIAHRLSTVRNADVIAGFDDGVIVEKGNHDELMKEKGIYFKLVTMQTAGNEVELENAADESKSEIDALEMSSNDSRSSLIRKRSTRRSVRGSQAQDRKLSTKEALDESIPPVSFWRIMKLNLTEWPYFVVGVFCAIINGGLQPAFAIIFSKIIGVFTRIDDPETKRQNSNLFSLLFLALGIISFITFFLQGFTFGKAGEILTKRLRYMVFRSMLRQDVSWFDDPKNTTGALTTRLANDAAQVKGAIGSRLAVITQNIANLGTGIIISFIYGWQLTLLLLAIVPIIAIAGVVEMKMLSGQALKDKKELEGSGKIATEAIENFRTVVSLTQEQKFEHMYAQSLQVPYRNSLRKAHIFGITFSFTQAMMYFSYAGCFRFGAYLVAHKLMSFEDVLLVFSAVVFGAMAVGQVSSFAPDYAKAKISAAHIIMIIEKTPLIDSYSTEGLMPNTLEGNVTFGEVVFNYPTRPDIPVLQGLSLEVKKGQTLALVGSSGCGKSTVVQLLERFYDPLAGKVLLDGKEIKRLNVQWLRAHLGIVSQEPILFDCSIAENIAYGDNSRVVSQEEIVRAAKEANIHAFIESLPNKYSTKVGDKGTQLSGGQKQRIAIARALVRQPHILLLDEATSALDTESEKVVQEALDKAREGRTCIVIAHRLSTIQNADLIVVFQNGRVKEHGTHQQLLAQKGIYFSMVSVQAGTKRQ
Experiment: TP_TRANSPORTER: inhibition of Digoxin transepithelial transport (basal to apical) in MDR1-expressing MDCK cells
MEASURE NAME: pKi
A value of pKi is the negative decimal logarithm of a concentration given in moles per litre.

Observe how each entry below is paired with its result.
CC[C@]1(O)C[C@H]2CN(CCc3c([nH]c4ccccc34)[C@@](C(=O)OC)(c3cc4c(cc3OC)N(C=O)[C@H]3[C@@](O)(C(=O)OC)[C@H](OC(C)=O)[C@]5(CC)C=CCN6CC[C@]43[C@@H]65)C2)C1; 3.67
COC(=O)[C@H]1[C@H]2C[C@@H]3c4[nH]c5cc(OC)ccc5c4CCN3C[C@H]2C[C@@H](OC(=O)c2cc(OC)c(OC)c(OC)c2)[C@@H]1OC; 4.94

Next compound, please.
Per the record, COc1cccc2c1C(=O)c1c(O)c3c(c(O)c1C2=O)C[C@@](O)(C(C)=O)C[C@@H]3O[C@H]1C[C@H](N)[C@H](O)[C@H](C)O1 has pKi of 3.95
